procedureDetails: drug combination growth inhibition, ovarian cancer – cell-based, oncology-focused library, rucaparib conditional, profiling panel (AID 1508598)
measurementConditions: patient-derived ovarian cancer cells, CellTiter-Glo viability, 144 h; at 5 µM; OCI-C5x cells; without rucaparib; stronger effect = lower value
measurementType: viability (%)

molecule: CCOC(=O)c1cnc2ccc(-c3cncc(NS(=O)(=O)c4ccccc4)c3)cn12
measurementType: viability
units: %
obsValue: 22.5
//
molecule: c1ccc(Cn2c(-c3ccc(OC[C@H](C4CCNCC4)n4c(-c5ccccc5)nc5ccccc54)cc3)nc3ccccc32)cc1
measurementType: viability
units: %
obsValue: 3.14
//
molecule: C[C@]12C=CC(=O)C=C1CC[C@@H]1[C@H]2C(=O)C[C@@]2(C)[C@H]1CC[C@@]2(O)C(=O)CO
measurementType: viability
units: %
obsValue: 98.1
//
molecule: CC(=O)O[C@]12CO[C@@H]1C[C@H](O)[C@]1(C)C(=O)[C@H](O)C3=C(C)[C@H](OC(=O)[C@H](O)[C@@H](NC(=O)OC(C)(C)C)c4ccccc4)C[C@](O)([C@H](OC(=O)c4ccccc4)C21)C3(C)C (some centres undefined)
measurementType: viability
units: %
obsValue: 56.7
